Target: T1, His-tagged mouse CD38 (ACRO Biosystems CD8-M5223) (mouse, UniProt P56528 45-304)
T1 construct: bought protein; used for ELISA coating and as SPR analyte; also called Murine; not shown: His tag
T1 sequence (looked up): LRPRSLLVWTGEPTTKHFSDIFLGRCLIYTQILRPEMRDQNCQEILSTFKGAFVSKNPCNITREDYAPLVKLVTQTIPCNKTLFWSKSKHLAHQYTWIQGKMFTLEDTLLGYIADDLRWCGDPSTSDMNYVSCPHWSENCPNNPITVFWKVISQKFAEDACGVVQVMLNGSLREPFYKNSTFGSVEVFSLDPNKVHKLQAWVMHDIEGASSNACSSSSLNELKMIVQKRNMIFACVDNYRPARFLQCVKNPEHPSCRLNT
Assay: SPR, IgG
experimental endpoint: Kd (µM)

{"binder": "40769p2.1.H12 IgG (antibody, V domains shown, IgG) VH: EVQLLESGGGLIQPGGSLRLSCTASGFDFSSYGMHWVRQAPGKGLEWVGIISDSGGTTYYADSVKGRFTISRDNSKNTLYLQMNSLRAEDTALYYCASYIMDVWGQGITVTVSS VL: QSVLTQPPSASGTPGQRVTISCSGSNSNVGVNSVYWYQQLPGTAPKLLIYGSGRRPSGVPDRFSVSKSGTSASLAISGLQSEDEADYYCAAWDDGLNAWVFGGGTKLTVL", "unit of measurement": "µM", "value measured": 21.4}
